Source of measurements: paper PMC6393309

Tested on: GB2005 E. coli cells
Test: ssDNA recombination assay
Assay type: cell-based
Conditions: % of WT colonies per 10^8 viable cells
experimental_endpoint: SS (%): ssDNA recombination compared to WT
Please respond with the number in % and leave the unit unwritten.

Solved cases (5 shown):
molecule | data_value
F249A Redβ: Redβ variant (protein) MSTALATLAGKLAERVGMDSVDPQELITTLRQTAFKGDASDAQFIALLIVANQYGLNPWTKEIYAFPDKQNGIVPVVGVDGWSRIINENQQFDGMDFEQDNESCTCRIYRKDRNHPICVTEWMDECRREPFKTREGREITGPWQSHPKRMLRHKAMIQCARLAFGFAGIYDKDEAERIVENTAYTAERQPERDITPVNDETMQEINTLLIALDKTWDDDLLPLCSQIFRRDIRASSELTQAEAVKALGALKQKAAEQKVAA | 0.73
E256A Redβ: Redβ variant (protein) MSTALATLAGKLAERVGMDSVDPQELITTLRQTAFKGDASDAQFIALLIVANQYGLNPWTKEIYAFPDKQNGIVPVVGVDGWSRIINENQQFDGMDFEQDNESCTCRIYRKDRNHPICVTEWMDECRREPFKTREGREITGPWQSHPKRMLRHKAMIQCARLAFGFAGIYDKDEAERIVENTAYTAERQPERDITPVNDETMQEINTLLIALDKTWDDDLLPLCSQIFRRDIRASSELTQAEAVKALGFLKQKAAAQKVAA | 55
R229A Redβ: Redβ variant (protein) MSTALATLAGKLAERVGMDSVDPQELITTLRQTAFKGDASDAQFIALLIVANQYGLNPWTKEIYAFPDKQNGIVPVVGVDGWSRIINENQQFDGMDFEQDNESCTCRIYRKDRNHPICVTEWMDECRREPFKTREGREITGPWQSHPKRMLRHKAMIQCARLAFGFAGIYDKDEAERIVENTAYTAERQPERDITPVNDETMQEINTLLIALDKTWDDDLLPLCSQIFARDIRASSELTQAEAVKALGFLKQKAAEQKVAA | 58
F94E λexo: λ Exo variant (protein, left off: His6, N-terminal, kept) MTPDIILQRTGIDVRAVEQGDDAWHKLRLGVITASEVHNVIAKPRSGKKWPDMKMSYFHTLLAEVCTGVAPEVNAKALAWGKQYENDARTLFEETSGVNVTESPIIYRDESMRTACSPDGLCSDGNGLELKCPFTSRDFMKFRLGGFEAIKSAYMAQVQYSMWVTRKNAWYFANYDPRMKREGLHYVVIERDEKYMASFDEIVPEFIEKMDEALAEIGFVFGEQWR | 177
L91A λexo (protein, left off: His6, N-terminal, kept) MTPDIILQRTGIDVRAVEQGDDAWHKLRLGVITASEVHNVIAKPRSGKKWPDMKMSYFHTLLAEVCTGVAPEVNAKALAWGKQYENDARTAFEFTSGVNVTESPIIYRDESMRTACSPDGLCSDGNGLELKCPFTSRDFMKFRLGGFEAIKSAYMAQVQYSMWVTRKNAWYFANYDPRMKREGLHYVVIERDEKYMASFDEIVPEFIEKMDEALAEIGFVFGEQWR | 103

Q: Given D87A λexo (protein, left off: His6, N-terminal, kept) MTPDIILQRTGIDVRAVEQGDDAWHKLRLGVITASEVHNVIAKPRSGKKWPDMKMSYFHTLLAEVCTGVAPEVNAKALAWGKQYENAARTLFEFTSGVNVTESPIIYRDESMRTACSPDGLCSDGNGLELKCPFTSRDFMKFRLGGFEAIKSAYMAQVQYSMWVTRKNAWYFANYDPRMKREGLHYVVIERDEKYMASFDEIVPEFIEKMDEALAEIGFVFGEQWR , state its recorded SS (%): ssDNA recombination compared to WT.
Result: 179

Q: For the molecule K253A Redβ (protein) MSTALATLAGKLAERVGMDSVDPQELITTLRQTAFKGDASDAQFIALLIVANQYGLNPWTKEIYAFPDKQNGIVPVVGVDGWSRIINENQQFDGMDFEQDNESCTCRIYRKDRNHPICVTEWMDECRREPFKTREGREITGPWQSHPKRMLRHKAMIQCARLAFGFAGIYDKDEAERIVENTAYTAERQPERDITPVNDETMQEINTLLIALDKTWDDDLLPLCSQIFRRDIRASSELTQAEAVKALGFLKQAAAEQKVAA , what SS (%): ssDNA recombination compared to WT is on record?
Result: 2.5

Q: May I ask what SS (%): ssDNA recombination compared to WT has been recorded for L223D Redβ: Redβ variant (protein) MSTALATLAGKLAERVGMDSVDPQELITTLRQTAFKGDASDAQFIALLIVANQYGLNPWTKEIYAFPDKQNGIVPVVGVDGWSRIINENQQFDGMDFEQDNESCTCRIYRKDRNHPICVTEWMDECRREPFKTREGREITGPWQSHPKRMLRHKAMIQCARLAFGFAGIYDKDEAERIVENTAYTAERQPERDITPVNDETMQEINTLLIALDKTWDDDLLPDCSQIFRRDIRASSELTQAEAVKALGFLKQKAAEQKVAA ?
Result: 0.68

Q: I'd like to know its SS (%): ssDNA recombination compared to WT. The molecule in question is F249D Redβ (protein) MSTALATLAGKLAERVGMDSVDPQELITTLRQTAFKGDASDAQFIALLIVANQYGLNPWTKEIYAFPDKQNGIVPVVGVDGWSRIINENQQFDGMDFEQDNESCTCRIYRKDRNHPICVTEWMDECRREPFKTREGREITGPWQSHPKRMLRHKAMIQCARLAFGFAGIYDKDEAERIVENTAYTAERQPERDITPVNDETMQEINTLLIALDKTWDDDLLPLCSQIFRRDIRASSELTQAEAVKALGDLKQKAAEQKVAA
Result: 0.41
